tested on: HEK-293T; experiment: Multiplex assay against HEK293T; format: toxicity, cell-based; conditions: human, 12 h, 10 µM, compound concentration 10 uM, replicate 1
reported-property: Population Membrane Permeable-Phenotype (%)
Give the value in % but do not write % after it.

The examples below pair each entry with its known result.
CC[C@@]1(O)C(=O)OCc2c1cc1n(c2=O)Cc2cc3ccccc3nc2-1 [CAMPTOTHECIN] ... 3
CC(C)[C@H](CO)Nc1nc(Nc2cccc(Cl)c2)c2ncn(C(C)C)c2n1 [PURVALANOLA] ... 2
Cl.NC[C@@H]1O[C@H](C23CC4CC(CC(C4)C2)C3)Cc2c1ccc(O)c2O ... 0
C[C@@H](Oc1cc(-n2cnc3ccc(CN4CCN(C)CC4)cc32)sc1C(N)=O)c1ccccc1C(F)(F)F [GSK-461364] ... 7
C=CC(=O)Nc1cc(-n2c(=O)ccc3cnc4ccc(-c5ccc(NS(C)(=O)=O)cc5)cc4c32)ccc1C ... 0
Cc1ccc(S(=O)(=O)NC2c3ccccc3Oc3ccccc32)cc1 ... 3

Form: molecule = `CC(C)c1cc(Nc2nc(N3CCC[C@H](N)C3)ncc2C(N)=O)cc(C(C)C)n1` ; Population Membrane Permeable-Phenotype (%) = 0

Form: molecule = CC[C@@H]1C(=O)N(C)c2cnc(Nc3ccc(C(=O)NC4CCN(C)CC4)cc3OC)nc2N1C1CCCC1 [BI-2536] ; Population Membrane Permeable-Phenotype (%) = 17

Form: molecule = `Cc1c(P(=S)(c2ccccc2)c2ccccc2)n2ccccc2[n+]1C/C=C/c1ccccc1.[Br-]` ; Population Membrane Permeable-Phenotype (%) = 14

----------
tested on: U2OS; experiment: Multiplex assay against U2OS; type: toxicity, cell-based; conditions: human, 12 h, 10 µM, compound concentration 10 uM, replicate 2
reported-property: Population Mitotic Cells (%)
Give the value in % but do not write % after it.

The examples below pair each entry with its known result.
Cl.NC[C@@H]1O[C@H](C23CC4CC(CC(C4)C2)C3)Cc2c1ccc(O)c2O ... 47
CCCCN(CC)c1nc(C)nc2c1c(C)cn2-c1c(C)cc(C)cc1C.Cl ... 80
CC(/C=C1\SC(=S)N(CCCC(=O)Nc2ccc(C(=O)O)c(O)c2)C1=O)=C\c1ccccc1 ... 55

Form: compound = CC(C)[C@H](CO)Nc1nc(Nc2cccc(Cl)c2)c2ncn(C(C)C)c2n1 [PURVALANOLA] ; Population Mitotic Cells (%) = 16

Form: compound = `N#Cc1cccc(C(=O)Nc2cc(-c3ccccc3)nn2-c2ccccc2)c1` ; Population Mitotic Cells (%) = 55

----------
test system: U2OS; test: Multiplex assay against U2OS; format: toxicity, cell-based; conditions: human, 48 h, 10 µM, compound concentration 10 uM, replicate 2
Please respond with Satisfied when measured Population Mitotic Cells (%) is strictly beneath 30%, and with Not satisfied in all other cases.

Examples from the recorded data:
Cc1c(Nc2ccc(S(=O)(=O)N3CCN(C)CC3)cc2F)nc2ccc(-c3cnn(C4CC4)c3)cn2c1=O ... Satisfied
N#CCNC(=O)c1ccc(-c2ccnc(Nc3ccc(N4CCOCC4)cc3)n2)cc1 ... Not satisfied
CC(/C=C1\SC(=S)N(CCCC(=O)Nc2ccc(C(=O)O)c(O)c2)C1=O)=C\c1ccccc1 ... Not satisfied
C[C@@H](Oc1cc(-n2cnc3ccc(CN4CCN(C)CC4)cc32)sc1C(N)=O)c1ccccc1C(F)(F)F ... Satisfied

Now consider a different compound.
input: Would you kindly verify if Population Mitotic Cells (%) of `Cl.NC[C@@H]1O[C@H](C23CC4CC(CC(C4)C2)C3)Cc2c1ccc(O)c2O` is strictly less than 30%?
output: Satisfied
